Test: Ratio of drug level in heart to blood in Sprague-Dawley rat at 37 to 111 MBq, iv measured at 2 hrs
Type: ADME, organism-based
readout-kind: Kp at 2 h
Enter the number alone.

Fill blank: measured Kp at 2 h of the compound COc1cc2c(cc1OC)[C@@H]1C(=O)c3ccc4c(c3O[C@@H]1CO2)C[C@H](C(C)(O)C[123I])O4 (stereo partly specified) is ____. 8.37

====

Assay: Biodistribution in rat liver at 15 mins
Format: ADME, organism-based
Conditions: read-out: Drug uptake
readout-kind: tissue uptake at 0.25 h (%ID/g)
Please respond with the number in %ID/g and leave the unit unwritten.

Look up tissue uptake at 0.25 h: CC(C)(C)n1ncc(OCc2ccc(CCCC[18F])cc2)c(Cl)c1=O 1.6
